# tested-target: μ-opioid receptor (Homo sapiens, UniProt P35372)
# Sequence (P35372 whole entry, species assumed): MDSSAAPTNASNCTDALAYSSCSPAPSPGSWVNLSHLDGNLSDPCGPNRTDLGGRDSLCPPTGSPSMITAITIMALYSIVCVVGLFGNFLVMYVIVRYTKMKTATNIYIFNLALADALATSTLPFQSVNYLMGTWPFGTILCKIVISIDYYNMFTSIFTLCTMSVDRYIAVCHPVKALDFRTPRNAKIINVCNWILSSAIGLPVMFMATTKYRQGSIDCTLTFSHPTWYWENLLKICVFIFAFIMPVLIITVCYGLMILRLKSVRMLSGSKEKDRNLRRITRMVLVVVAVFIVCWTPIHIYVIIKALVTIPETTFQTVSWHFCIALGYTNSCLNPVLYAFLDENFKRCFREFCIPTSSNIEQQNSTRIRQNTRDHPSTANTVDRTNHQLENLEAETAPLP
# method: μ-opioid receptor [35S]GTPγS functional assay, U-2 OS cells
# Type: biochemical
# Parameters: host or cells: U-2 OS cells
# test-settings: U2-OS cells; relative to DAMGO
readout-type: Emax (%)
Answers are plain numbers, in %.

Some molecules with recorded Emax:
                                   molecule  readout_value
0  CC[C@H](C)C(=O)N[C@H]1C[C@@]2(O)[C@H]3Cc4ccc(O)cc4[C@@]2(CCN3CC2CC2)C[C@H]1O           22.3
1  CC(=O)N[C@H]1CC[C@]23CCN(CC4CC4)[C@H](Cc4ccc(O)cc42)[C@]3(O)C1             44
2  O=C(O)CN[C@@H]1C[C@@]2(O)[C@H]3Cc4ccc(O)cc4[C@@]2(CCN3CC2CC2)C[C@@H]1O              2
3  N=C(N)NCCCC(=O)N[C@@H]1CC[C@@]2(O)[C@H]3Cc4ccc(O)cc4[C@@]2(CCN3CC2CC2)C1             60
4  CC(C)CN[C@H]1CC[C@]23CCN(CC4CC4)[C@H](Cc4ccc(O)cc42)[C@]3(O)C1           67.3
5  CC(C)CCCC(=O)N[C@H]1C[C@@]2(O)[C@H]3Cc4ccc(O)cc4[C@@]2(CCN3CC2CC2)CC1O (stereo partly shown)           58.7
6  CC(C)C[C@H]1C[C@@]2(O)[C@H]3Cc4ccc(O)cc4[C@@]2(CCN3CC2CC2)C[C@H]1O              2
7  O=C(N[C@H]1C[C@@]2(O)[C@H]3Cc4ccc(O)cc4[C@@]2(CCN3CC2CC2)C[C@H]1O)c1ccccc1             15
8  NCCCN[C@@H]1CC[C@@]2(O)[C@H]3Cc4ccc(O)cc4[C@@]2(CCN3CC2CC2)C1           66.3
9  COc1ccc2c(c1)[C@]13CCN(CC4CC4)[C@H](C2)[C@]1(O)C[C@H](OCC(C)C)[C@H](O)C3              7

Hi, could you look up Emax for each item in my list?
1. CC(C)CCCC(=O)N[C@H]1C[C@@]2(O)[C@H]3Cc4ccc(O)cc4[C@@]2(CCN3CC2CC2)C[C@H]1O
2. CC(C)CCC(=O)N[C@H]1C[C@@]2(O)[C@H]3Cc4ccc(O)cc4[C@@]2(CCN3CC2CC2)C[C@H]1O

1. 60.3
2. 26.7

Hi, could you look up Emax for each item in my list?
1. NCCCCN[C@@H]1CC[C@@]2(O)[C@H]3Cc4ccc(O)cc4[C@@]2(CCN3CC2CC2)C1
2. O=C(N[C@H]1C[C@@]2(O)[C@H]3Cc4ccc(O)cc4[C@@]2(CCN3CC2CC2)CC1O)C1CCCCC1 (stereo partly shown)

1: 74.3; 2: 26.7

Hi, could you look up Emax for each item in my list?
1. COc1ccc2c(c1)[C@]13CCN(CC4CC4)[C@H](C2)[C@]12C[C@H](OCc1ccccc1)[C@H](C3)O2
2. CC(C)C(=O)N[C@H]1C[C@@]2(O)[C@H]3Cc4ccc(O)cc4[C@@]2(CCN3CC2CC2)CC1O (stereo partly shown)
3. COc1ccc2c(c1)[C@@]13CC[C@@H](O)C[C@@]1(O)[C@@H](C2)N(CC1CC1)CC3
4. Oc1ccc2c(c1)[C@]13CCN(CC4CC4)[C@H](C2)[C@]1(O)C[C@H](CC1CCCC1)[C@H](O)C3
5. COc1ccc2c(c1)[C@]13CCN(CC4CC4)[C@H](C2)[C@]1(O)C[C@H](NC(=O)C(C)C)C(O)C3 (stereo partly shown)

42
12.8
23.2
3
27

Hi, could you look up Emax for each item in my list?
1. Oc1ccc2c(c1)[C@]13CCN(CC4CC4)[C@H](C2)[C@]1(O)C[C@@H](N1CCOCC1)[C@@H](O)C3
2. COc1ccc2c(c1)[C@@]13CCC(=O)C[C@@]1(O)[C@@H](C2)N(CC1CC1)CC3

1: 2; 2: 57.3

Cited source: patent US20200148646A1
